# System: SW-620 colon
# experiment-notes: NCI-60 one-dose screen, 48 h
# protocol-conditions: 10 µM unless noted
The panel holds about 83,000 compounds, 20% with a hit somewhere; the sample as a whole holds those more often. Active and inactive are the calls of the source. How the source made its calls: active means growth percent below 10; inactive means the rest.
Valid outcomes are listed here; reply with one: true (1) (active), false (0) (inactive)

// outcome(item) with item = C=C(CNCCO)[C@@H]1CC[C@]2(CO)CC[C@]3(C)[C@H](CC[C@@H]4[C@@]5(C)CCC(NCCO)C(C)(C)[C@@H]5CC[C@]43C)[C@@H]12 (stereo partly drawn) false (0)

// outcome(item) with item = COc1cccc(/C=C2\CCc3ccccc3C2=O)c1 false (0)

// outcome(item) with item = Cc1ccc(Nc2nc(N)nc(N)c2N=O)cc1Cl false (0)

// outcome(item) with item = COC(=O)[C@H](C)NC(=O)[C@@H]1CCCN1C(=O)CNC(=O)[C@H](C)N false (0)

// outcome(item) with item = O=C(NS(=O)(=O)c1ccccc1)n1cc(-c2ccncc2)c(-c2cc(O)cc(Cl)c2)n1 false (0)

// outcome(item) with item = CNC(=O)c1cc(Oc2cccc3nc(NC(=O)Nc4ccc(F)cc4F)ccc23)ccn1 false (0)

// outcome(item) with item = CCCCC/C=C/CCC(=O)N[C@H]1[C@H](Oc2c3cc4cc2Oc2ccc(cc2Cl)[C@@H](O[C@@H]2O[C@H](CO)[C@@H](O)[C@H](O)[C@H]2NC(C)=O)[C@@H]2NC(=O)[C@H](NC(=O)[C@@H]4NC(=O)[C@H]4NC(=O)[C@@H](Cc5ccc(c(Cl)c5)O3)NC(=O)[C@@H](N)c3ccc(O)c(c3)Oc3cc(O)cc4c3)c3ccc(O)c(c3)-c3c(O[C@H]4O[C@H](CO)[C@@H](O)[C@H](O)[C@@H]4O)cc(O)cc3[C@H](C(=O)O)NC2=O)O[C@H](CO)[C@H](O)[C@@H]1O false (0)

// outcome(item) with item = COc1ccc(-c2csc(NC(=O)CSc3nc(C)cc(=O)[nH]3)n2)cc1 false (0)

// outcome(item) with item = CCOC(=O)c1ccc2c(c1)[n+](=O)c(C(C)=O)c(C(F)(F)F)n2[O-] true (1)

// outcome(item) with item = CN1/C(=C/C=C/c2n(Cc3ccc4ccccc4c3)c(Cl)c(Cl)[n+]2Cc2ccc3ccccc3c2)Oc2ccccc21 true (1)

// outcome(item) with item = CC(C)(C)CC(C)(C)Nc1c(-c2c(O)c3ccccc3oc2=O)nc2sccn12 false (0)

// outcome(item) with item = CNC(=O)c1cc(Oc2ccc3nc(NC(=O)NC(C)C)sc3c2)ccn1 false (0)

// outcome(item) with item = O=C(O)c1nn(-c2ccc(Cl)cc2)nc1N1CCCC1 false (0)

// outcome(item) with item = Nc1ccc(Cl)c2c(=O)c3ccccc3[nH]c12 false (0)

// outcome(item) with item = COC(=O)c1c(C(=O)OC)c2ccc3c4ncccc4ccc3n2c1C(=O)c1ccc(C)cc1 false (0)

// outcome(item) with item = O=C1N/C(=N/N=C(c2ccccc2)c2ccccc2)S/C1=C\c1ccc(Br)cc1 false (0)

// outcome(item) with item = CCCCCC(C)(O)C(C(=O)O)c1ccccc1 (stereo not drawn) false (0)

// outcome(item) with item = CCOC(=O)C1=C(c2ccccc2)N=C2N(c3ccccc3)N=C(C(C)=O)N2C1c1ccc(Br)cc1 (stereo not drawn) false (0)

// outcome(item) with item = COC(CCP(=O)(c1ccccc1)c1ccccc1)(C(=O)c1ccccc1)c1ccccc1 (stereo not drawn) false (0)

// outcome(item) with item = CC(C)(C#N)c1cc(C(=O)Nc2cc(Nc3ncccc3-c3ncnc4nc[nH]c34)ccc2F)cc(C(F)(F)F)c1 false (0)

// outcome(item) with item = CC/C(=C(/c1ccc(Cl)cc1)c1ccc(OCCN2CCCC2)cc1)c1ccccc1 false (0)

// outcome(item) with item = c1ccc2c(-c3cnn4cc(-c5ccc(N6CCNCC6)cc5)cnc34)ccnc2c1 true (1)

// outcome(item) with item = CCCCCN(CCCCC)CC(O)c1c(Cl)ccc2ccccc12 (stereo not drawn) false (0)

// outcome(item) with item = CS(=O)(=O)c1cccc(Nc2ncc3cc(-c4ccccc4Cl)ccc3n2)c1 false (0)

// outcome(item) with item = COc1cc2c(c(OC)c1OC)CCC(c1cccc(C(=O)Nc3ccc([N+](=O)[O-])cc3)c1)O2 (stereo not drawn) false (0)

// outcome(item) with item = C#C[C@]1(O)CC[C@H]2[C@@H]3CC=C4c5sc(-c6cccc(C)c6)nc5CC[C@]4(C)[C@H]3CC[C@@]21C false (0)

// outcome(item) with item = COc1ccc(/C=C2/CCc3cc4ccc(OC)cc4[o+]c32)c(O)c1 false (0)

// outcome(item) with item = Cn1cc(-c2ccc3occ(-c4cccc(-c5ccncc5)c4)c3n2)cn1 false (0)

// outcome(item) with item = CCOC(=O)/C=C1\S/C(=N\Nc2cc(=O)[nH]c3ccc(OC)cc23)N(c2ccccc2)C1=O false (0)

// outcome(item) with item = CN(C)CCOc1nc2c3cc([N+](=O)[O-])ccc3nn2c2ccccc12 false (0)

// outcome(item) with item = CCn1c2ccccc2c2cc(C(O)c3cccc4ncccc34)ccc21 (stereo not drawn) false (0)

// outcome(item) with item = O=c1c(Cc2ccc(F)cc2)cc(-c2ccccc2)nn1C/C(=N/O)c1ccccc1 false (0)

// outcome(item) with item = COC(=O)[C@H]1Cc2c([nH]c3ccccc23)[C@H](c2ccc3c(c2)OCO3)N1 false (0)

// outcome(item) with item = N#C/C(=C\c1cccc2cnccc12)N1N=NC2C=CC=CC21 (stereo not drawn) false (0)

// outcome(item) with item = CN(C)c1ccc(/C=N/NC(=O)CSc2nc3sc4c(c3c(=O)n2-c2ccccc2)CCCCC4)cc1 false (0)

// outcome(item) with item = CCOC(=O)/C(=C/c1ccc([N+](=O)[O-])cc1)C(=O)c1ccccc1 true (1)

// outcome(item) with item = COc1cccc(/C=C/C(=O)/C=C(/C=C/c2cccc(OC)c2OC)OB(F)F)c1OC false (0)

// outcome(item) with item = O=CN1N=C(c2cccc(Nc3ccncc3)c2)CC1c1ccc2c(c1)OCO2 (stereo not drawn) false (0)

###

# Test system: UO-31 renal
# experiment-notes: NCI-60 one-dose screen, 48 h (100 = growth as untreated, 0 = no growth, -100 = all killed)
# protocol-conditions: 10 µM unless noted
About 83,000 compounds went through this panel and 20% of them were active in at least one assay; those are over-represented in the sample as a whole.
assay-readout: growth (%)
# output: bare number, implied unit %

So for COc1cc2nc3cc([N+](=O)[O-])ccc3c(NCCCNCCO)c2cc1OC , the logged growth turned out to be 48.9

So for O=c1ccc2nc(-c3ccccc3)nn(-c3ccccn3)c-2c1 , the logged growth turned out to be 20.5

So for Nc1ncc(-c2ccc3ncnc(N4CCc5cc(F)c(Cl)cc54)c3c2)cc1C(F)(F)F , the logged growth turned out to be -2.54

So for O=C1C(Nc2ccc(Br)cc2)=C(I)C(=O)c2ncccc21 , the logged growth turned out to be -38.4

So for COC(=O)c1cc(-c2ccc(OC)c(OC)c2)[nH]c1N/N=C/c1c(Cl)cccc1Cl , the logged growth turned out to be 52.4

So for COc1cccc(CNc2nnc(C)c(C)n2)c1O , the logged growth turned out to be 91.6

So for COc1ccccc1-c1nc2ccc3[nH]ncc3c2c2c1CCCC2 , the logged growth turned out to be 36.3

So for COc1cc(OCc2cccc(-c3ccccc3)c2C)cc(OC)c1CN1CCCCC1C(=O)NCCOCCOCCN (configuration not stated) , the logged growth turned out to be 79.1

So for CC/C(=C(/c1ccc(Cl)cc1)c1ccc(OCCN2CCCC2)cc1)c1ccccc1 , the logged growth turned out to be 66.2

So for O=C1/C(=C/c2cccc(Br)c2)COc2ccc(O)c(O)c21 , the logged growth turned out to be -100

So for COc1cccc(-c2nn(-c3ccccc3)cc2-c2ccnc(-c3cccnc3)c2)c1 , the logged growth turned out to be 62.1

So for COc1ccc(/C(C)=C(\c2ccc(Cl)cc2)c2ccc(OCCCN(C)C)cc2)cc1 , the logged growth turned out to be 64.5

So for C=C1C(=O)O[C@H]2[C@H]1CC/C(CNC(=O)/C=C/c1cc(OC)c(OC)c(OC)c1)=C\CC[C@@]1(C)O[C@@H]21 , the logged growth turned out to be -38.2

So for CCOC(=O)CC1C(CNC(=O)NC)OC(n2cnc3c(NC(=O)Nc4ccccc4)ncnc32)C1O[Si](C)(C)C(C)(C)C (configuration not stated) , the logged growth turned out to be 57

So for COC(=O)[C@@H](Cc1c[nH]c2ccccc12)NC[C@@H](O)CN1C(=O)/C(=C\c2cc(OC)c(OC)c(OC)c2)c2ccccc21 , the logged growth turned out to be 58.3

So for CCCCCCCCNC(=O)[C@@H](N)CSCOC(C)=O , the logged growth turned out to be 94.9

So for c1ccc2cc(Cn3cc[n+](Cc4ccc5ccccc5c4)c3)ccc2c1 , the logged growth turned out to be 70.6

So for [2H]C([2H])([2H])Oc1c(F)cccc1/C=C/C(=O)/C=C(O)/C=C/c1cccc(F)c1OC([2H])([2H])[2H] , the logged growth turned out to be 97.8

So for COc1ccc(/C=C/C(=O)c2ccc(-n3cc(CN4CCN(c5cc6c(cc5F)c(=O)c(C(=O)O)cn6C5CC5)CC4)nn3)cc2)cc1 , the logged growth turned out to be 54.9

So for Cn1cc(-c2ccc3occ(-c4cccc(-c5ccncc5)c4)c3n2)cn1 , the logged growth turned out to be 11.3

So for O=C(CSc1nnc(-c2ccc(Cl)c(Cl)c2)n1-c1ccccc1)Nc1ccc(C(=O)/C=C/c2ccc(Cl)cc2)cc1 , the logged growth turned out to be 66.2

So for CN(C)CCOc1ccc(/C(=C(/CCCCCCCCCC[P+](c2ccccc2)(c2ccccc2)c2ccccc2)c2ccccc2)c2ccccc2)cc1 , the logged growth turned out to be -90.3

So for COc1ccc(Cn2cc(C(=O)N=Nc3c(O)[nH]c4ccc(Br)cc34)nn2)cc1 , the logged growth turned out to be 91.5

So for Cc1ccc(Nc2oc(-c3ccccc3)nc2[P+](c2ccccc2)(c2ccccc2)c2ccccc2)cc1 , the logged growth turned out to be -72.8

So for O=C1NCCS(=O)(=O)/C1=C\C=C\c1cccc(C(F)(F)F)c1 , the logged growth turned out to be 26.8

So for COc1ccc(NC(=O)c2ccc(Cl)cc2Cl)cc1 , the logged growth turned out to be 96.5

So for COc1ccc(CNc2c3ccccc3nc3ccccc23)cc1OC , the logged growth turned out to be 12.1

So for Clc1nc(N2CCC[N+]3(CC2)CC[N+]2(CCCNCC2)CC3)nc(N2CCC[N+]3(CC2)CC[N+]2(CCCNCC2)CC3)n1 (configuration not stated) , the logged growth turned out to be 97.9

So for O=C(NCCN1CCOCC1)c1cncnc1Nc1ccc2c(ccn2Cc2ccccn2)c1 , the logged growth turned out to be 88.5

So for COC(=O)[C@H]1Cc2c([nH]c3ccccc23)[C@H](c2ccc3c(c2)OCO3)N1 , the logged growth turned out to be 80.2

So for O=C(/C=C/C12c3ccccc3C(c3ccccc31)C1C(=O)NC(=O)C12)c1cccs1 (configuration not stated) , the logged growth turned out to be 42.6

So for COc1cc(/C=N/NC(=O)c2ccc3nc(-c4ccc(Cl)cc4)[nH]c3c2)cc(OC)c1OC , the logged growth turned out to be 88.3

So for CN1CCN(Cc2ccc(NC(=O)c3cncc(C#Cc4cnc(N)c5ccc(C#N)cc45)c3)cc2C(F)(F)F)CC1 , the logged growth turned out to be -78.4

So for CCOc1ccc(-c2cc(C3(S(=O)(=O)c4ccc(C)cc4)CC=CC3)on2)cc1 , the logged growth turned out to be 81.4

So for CNC1=C(Br)C(=O)c2c(C(=O)OC)c(C)nc(C)c2C1=O , the logged growth turned out to be 77.4

So for COc1ccc(C2=NN3C(C2)c2cc(Br)ccc2OC3c2ccncc2)cc1 (configuration not stated) , the logged growth turned out to be 44.6

So for CC(CN)[C@@H]1CC[C@]2(CO)CC[C@]3(C)[C@H](CC[C@@H]4[C@@]5(C)CCC(NCCO)C(C)(C)[C@@H]5CC[C@]43C)[C@@H]12 (some centres not stated) , the logged growth turned out to be 69.7

Attribution: PubChem BioAssay (NCI)
